From: ChEMBL document CHEMBL1123918

- assay_target: Thromboxane-A synthase (Rattus norvegicus)
- Sequence (P49430 whole entry): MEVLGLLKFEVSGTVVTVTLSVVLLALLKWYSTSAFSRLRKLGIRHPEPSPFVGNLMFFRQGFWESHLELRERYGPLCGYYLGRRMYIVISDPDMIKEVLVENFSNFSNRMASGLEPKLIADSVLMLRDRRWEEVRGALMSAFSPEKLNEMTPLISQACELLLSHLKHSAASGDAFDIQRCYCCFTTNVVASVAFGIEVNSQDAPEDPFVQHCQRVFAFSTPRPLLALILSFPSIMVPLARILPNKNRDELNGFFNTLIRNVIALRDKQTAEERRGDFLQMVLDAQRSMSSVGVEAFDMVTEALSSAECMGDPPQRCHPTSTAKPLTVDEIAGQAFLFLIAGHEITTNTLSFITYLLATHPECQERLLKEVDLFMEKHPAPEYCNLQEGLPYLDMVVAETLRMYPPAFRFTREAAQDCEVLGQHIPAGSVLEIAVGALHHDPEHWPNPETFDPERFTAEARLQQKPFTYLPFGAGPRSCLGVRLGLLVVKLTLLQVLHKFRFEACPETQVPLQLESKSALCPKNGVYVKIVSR
recorded_metric: log10 IC50 (log10 of the value in µM)
Values below are the log10 of the recorded IC50, with µM as the unit.

Examples from the recorded data:
- compound: "O=c1[nH]c2cc(Cl)ccc2c(=O)n1CCCCCn1ccnc1"
  log10 IC50: -0.09
- compound: "CC(Cn1ccnc1)Cn1c(=O)[nH]c2c(Cl)cccc2c1=O (stereo unspecified)"
  log10 IC50: -2.00

Input line: Look up log10 IC50 for this compound: "Cc1ccc2[nH]c(=O)n(CCCCCn3ccnc3)c(=O)c2c1"
Output line: -1.52

Input line: Reported log10 IC50 for "O=c1c2cc(Cl)ccc2nnn1CCCCn1ccnc1" : what is it?
Output line: -0.62

Input line: Find the recorded log10 IC50 belonging to "O=c1[nH]c2ccc(Cl)cc2c(=O)n1CCCCn1ccnc1" and report it.
Output line: -2.15

Input line: Name the reported log10 IC50 value associated with the compound "O=c1c2cc(Cl)ccc2ncn1CCCCn1ccnc1"
Output line: -0.30
